Measured pKd by item
Biological target: T1, tail-chimeric peptide IhfA3-IhfB2NTHI (nontypeable Haemophilus influenzae …)
T1 construct: also called IHF(NTHI) tail chimeric peptide; IHFNTHI tail chimeric peptide
T1 peptide: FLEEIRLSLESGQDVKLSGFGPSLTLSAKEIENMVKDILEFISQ
Experiment: SPR Biacore 3000, HuMab immobilized, peptide as analyte
Reminder that pKd is minus the log10 of a molar concentration.

- humanized anti-tail monoclonal antibody, heavy chain SEQ ID NO: 5 and light chain SEQ ID NO: 10 (antibody, V domains shown, also called H10214 (11E7.C7 Humanized HC2) + L10213 (11E7.C7 Humanized LC1)) VH: EVQLVESGGGLVKPGGSLRLSCAASGFTFSRYGMSWVRQAPGKGLEWVSTISSGGSYTYYTDSVKGRFTISRDNAKNSLYLQMNSLRAEDTAVYYCERHGGDGYWYFDVWGQGTMVTVSS VL: DIQMTQSPSSLSASVGDRVTITCRASQDISNYLNWYQQKPGKAVKLLIYYTSRLHSGVPSRFSGSGSGTDYTLTISSLQPEDFATYFCQQGNPLRTFGGGTKVEIKR: 7.22
- humanized anti-tail monoclonal antibody, heavy chain SEQ ID NO: 4 and light chain SEQ ID NO: 10 (antibody, V domains shown, also called HuTailMab; TP-21958) VH: EVQLVESGGGLVKPGGSLRLSCAASGFTFSRYGMSWVRQAPGKGLEWVATISSGGSYTYYTDSVKGRFTISRDNAKNSLYLQMNSLRAEDTAVYYCERHGGDGYWYFDVWGQGTMVTVSS VL: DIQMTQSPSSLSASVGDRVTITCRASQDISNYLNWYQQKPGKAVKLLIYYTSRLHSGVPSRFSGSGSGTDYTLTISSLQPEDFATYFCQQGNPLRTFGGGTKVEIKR: 7.53

Request: For the binder humanized anti-tail monoclonal antibody, heavy chain SEQ ID NO: 6 and light chain SEQ ID NO: 12 (antibody, V domains shown, also called H10215 (11E7.C7 Humanized HC3) + L10215 (11E7.C7 Humanized LC3)) VH: EVQLVESGGGLVQPGRSLRLSCTASGFTFSRYGMSWVRQAPGKGLEWVATISSGGSYTYYTDSVKGRFTISRDNAKNILYLQMNSLKTEDTAVYYCERHGGDGYWYFDVWGQGTMVTVSS VL: DIVMTQSPATLSLSPGERATLSCRASQDISNYLNWYQQKPGQAVRLLIYYTSRLHSGIPARFSGSGSGTDYTLTISSLEPEDFAVYFCQQGNPLRTFGGGTKVEIKR , give its reported pKd.
Result: 7.89
